- Tested on: HSC-T6 cells
- protocolText: Serum-driven HSC-T6 proliferation, experiment 3 (24 h, proliferating cells)
- Format: cell-based, rat
- appliedConditions: HSC-T6, 24 h, proliferating cells; read-out: Experiment 3 EC50 (A)
Parameter: EC50. Scope: all listed entries.
The answer is to be given in nM; state only the numeric part.

Example entries begin here.
molecule | unitsOfMeasure | EC50
CC(C)(O)/C=C/C(=O)C(C)(O)C1C(O)CC2(C)C3CC=C4C(CC(=O)C(O)C4(C)C)C3(C)C(=O)CC12C (centres unmarked) | nM | 60
CCOC1=CC2C(=CCC3C2(C)C(=O)CC2(C)C(C(C)(O)C(=O)C=CC(C)(C)OC(C)=O)C(O)CC32C)C(C)(C)C1=O (centres unmarked) | nM | 270
CCCOC1=CC2C(=CCC3C2(C)C(=O)CC2(C)C(C(C)(O)C(=O)C=CC(C)(C)OC(C)=O)C(O)CC32C)C(C)(C)C1=O (centres unmarked) | nM | 340

Prompt: What value of EC50 has been reported for the following molecule? "CC(C)(O)/C=C/C(=O)[C@](C)(O)[C@H]1[C@H](O)C[C@@]2(C)[C@@H]3CC=C4[C@@H](C=C(O)C(=O)C4(C)C)[C@]3(C)C(=O)C[C@]12C"
Response: 20

Prompt: Quick check: EC50 of CC(=O)OC(C)(C)/C=C/C(=O)[C@](C)(O)[C@H]1[C@H](O)C[C@@]2(C)[C@@H]3CC=C4[C@@H](C=C(O[C@@H]5O[C@H](CO)[C@@H](O)[C@H](O)[C@H]5O)C(=O)C4(C)C)[C@]3(C)C(=O)C[C@]12C [E-Gluc, cucurbitacin E glucoside] ?
Response: 3280

====

- System: HSC-T6 cells
- protocolText: Serum-driven HSC-T6 proliferation, experiment 3 (24 h, proliferating cells)
- Type: cell-based, rat
- appliedConditions: HSC-T6, 24 h, proliferating cells; read-out: Experiment 3 EC50 (A)
quantityName: EC50 (nM)
Respond with the bare value in nM.

Prompt: I would be grateful if you could share the reported EC50 for COC1=CC2C(=CCC3C2(C)C(=O)CC2(C)C(C(C)(O)C(=O)CCC(C)(C)O)C(O)CC32C)C(C)(C)C1=O [L-Me] .
Response: 180

Prompt: Could you share which EC50 value was measured for CC(C)OC1=CC2C(=CCC3C2(C)C(=O)CC2(C)C(C(C)(O)C(=O)C=CC(C)(C)O)C(O)CC32C)C(C)(C)C1=O (stereo not drawn) [I-iPr] ?
Response: 250

Prompt: Fill blank: measured EC50 of the compound CCOC1=CC2C(=CCC3C2(C)C(=O)CC2(C)C(C(C)(O)C(=O)C=CC(C)(C)O)C(O)CC32C)C(C)(C)C1=O (stereo not drawn) [I-Et] is ____.
Response: 340

====

IC50 for assorted molecules
- Test system: HSC-T6 cells
- protocolText: Cytotoxicity on HSC-T6 cells (experiment 3)
- Type: cell-based, rat
- appliedConditions: read-out: Experiment 3 IC50 (T)
# number only, unit µM dropped from output

Some solved entries appear below for comparison.
molecule | targetOfAssay | IC50, µM
CCOC1=CC2C(=CCC3C2(C)C(=O)CC2(C)C(C(C)(O)C(=O)C=CC(C)(C)OC(C)=O)C(O)CC32C)C(C)(C)C1=O (centres unmarked) [E-Et] | HSC-T6 cells | 3.5
CC(=O)OC(C)(C)/C=C/C(=O)[C@](C)(O)[C@H]1[C@H](O)C[C@@]2(C)[C@@H]3CC=C4[C@@H](C=C(O[C@@H]5O[C@H](CO)[C@@H](O)[C@H](O)[C@H]5O)C(=O)C4(C)C)[C@]3(C)C(=O)C[C@]12C [E-Gluc, cucurbitacin E glucoside] | HSC-T6 cells | 102
CC(=O)OC(C)(C)/C=C/C(=O)[C@](C)(O)[C@H]1[C@H](O)C[C@@]2(C)[C@@H]3CC=C4[C@H](C[C@H](O)C(=O)C4(C)C)[C@]3(C)C(=O)C[C@]12C [B, cucurbitacin B] | HSC-T6 cells | 4.4
CC(C)(O)/C=C/C(=O)C(C)(O)C1C(O)CC2(C)C3CC=C4C(CC(=O)C(O)C4(C)C)C3(C)C(=O)CC12C (centres unmarked) [iso-D] | HSC-T6 cells | 8.7
CC(C)(O)/C=C/C(=O)[C@](C)(O)C1[C@H](O)C[C@@]2(C)C3CC=C4C(C=C(O[C@@H]5O[C@H](CO)[C@@H](O)[C@H](O)[C@H]5O)C(=O)C4(C)C)[C@]3(C)C(=O)C[C@]12C (some centres unmarked) [I-Gluc, cucurbitacin I glucoside] | HSC-T6 cells | 256

Prompt: Sample COC1=CC2C(=CCC3C2(C)C(=O)CC2(C)C(C(C)(O)C(=O)CCC(C)(C)O)C(O)CC32C)C(C)(C)C1=O [L-Me] — what was its IC50?
Response: 6.7

Prompt: Param item = CCCOC1=CC2C(=CCC3C2(C)C(=O)CC2(C)C(C(C)(O)C(=O)C=CC(C)(C)OC(C)=O)C(O)CC32C)C(C)(C)C1=O (centres unmarked) [E-nPr] ; retrieve measured IC50.
Response: 2.8

Prompt: So what does the record say about IC50 for CCCOC1=CC2C(=CCC3C2(C)C(=O)CC2(C)C(C(C)(O)C(=O)C=CC(C)(C)O)C(O)CC32C)C(C)(C)C1=O (centres unmarked) [I-nPr] ?
Response: 2.5
